# protein stability index per record follows
B1: STK38L (parent)
chain: FCIDSENRIGNSGVEEIKGHPFFE

Variants of: B1
Experiment: protein stability index of a GFP-peptide fusion (GPS, HEK-293T) (PSI 1-6); higher = more stable;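 also: lentivirally expressed fusions sorted by FACS into six bins by GFP to DsRed ratio, PSI derived from sequencing read proportions per bin multiplied by bin number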
Settings: c terminus: a fixed tail appended
Write the value as a bare number.

Below, each entry is followed by its recorded protein stability index result.
| seqText | testValue |
| --- | --- |
| FCIDSENRIGNSGVEEIKGHPVFE | 4.11 |
| FCIDSENRIGNSGVEEIKGHPFDE | 4.86 |
| FCIDSENRIGNSGVEEIKGHPNFE | 4.5 |
| FCIDSENRIGNSGVERIKGHPFFE | 2.3 |
| FCIDSENRIGNSGVEEIKGHPFFT | 1.21 |

Need protein stability index of FCIDSENRIGNSGVEEIIGHPFFE , thanks.
2.31

I am curious: what protein stability index value has been reported for FCIDSENRIGNNGVEEIKGHPFFE ?
2.55

Look at this variant and give its reported protein stability index. FMIDSENRIGNSGVEEIKGHPFFE
3.58

Need protein stability index, item WCIDSENRIGNSGVEEIKGHPFFE
3.19

For the variant FCIRSENRIGNSGVEEIKGHPFFE , what protein stability index is on record?
1.7

Entry under review: FNIDSENRIGNSGVEEIKGHPFFE . Reported protein stability index?
2.93
